Test system: Avena fatua
MEASUREMENT PROTOCOL: Post-emergence herbicidal activity against Avena fatua at 500 g a.i./ha measured after 15 days
Assay type: functional
RECORDED ENDPOINT: Activity (%)
Return type: number; implicit unit %.

For reference, reported Activity for COC1CN2C(=O)C(c3c(C)cc(C)cc3C)C(=O)N2C1 stands at 20

For reference, reported Activity for Cc1cc(C)c(C2C(=O)N3CCCCCN3C2=O)c(C)c1 stands at 90

For reference, reported Activity for Cc1cc(C)c(C2C(=O)N3CCCC(C)N3C2=O)c(C)c1 (stereo not drawn) stands at 90

For reference, reported Activity for Cc1cc(C)c(C2C(=O)N3CC(C)CN3C2=O)c(C)c1 stands at 90

For reference, reported Activity for Cc1cc(C)c(C2C(=O)N3CCC(C)CN3C2=O)c(C)c1 (stereo not drawn) stands at 90

For reference, reported Activity for Cc1cc(C)c(C2C(=O)N3CC(C)C(C)CN3C2=O)c(C)c1 (stereo not drawn) stands at 80

For reference, reported Activity for Cc1cc(C)c(C2C(=O)N3CCC(C)CCN3C2=O)c(C)c1 stands at 90

For reference, reported Activity for Cc1cc(C)c(C2C(=O)N3CCCCN3C2=O)c(C)c1 stands at 90

For reference, reported Activity for Cc1cc(C)c(C2C(=O)N3CCCN3C2=O)c(C)c1 stands at 20

For reference, reported Activity for Cc1cc(C)c(C2C(=O)N(C)N(C)C2=O)c(C)c1 stands at 40

For reference, reported Activity for Cc1cc(C)c(C2C(=O)N3CC(C)(C)CN3C2=O)c(C)c1 stands at 90

For reference, reported Activity for Cc1cc(C)c(C2C(=O)N3C[C@H]4CCCC[C@@H]4CN3C2=O)c(C)c1 stands at 50

For reference, reported Activity for Cc1cc(C)c(C2C(=O)N3C[C@H]4CCCC[C@H]4CN3C2=O)c(C)c1 (stereo partly drawn) stands at 80
